- system tested: T1, apical domain of human CD71 (human, UniProt P02786 189-383, limits assumed)
- T1 construct: domain: apical domain; the panning antigen was 30% biotinylated; also called human apical domain of CD71
- T1 sequence (P02786 189-383 limits assumed): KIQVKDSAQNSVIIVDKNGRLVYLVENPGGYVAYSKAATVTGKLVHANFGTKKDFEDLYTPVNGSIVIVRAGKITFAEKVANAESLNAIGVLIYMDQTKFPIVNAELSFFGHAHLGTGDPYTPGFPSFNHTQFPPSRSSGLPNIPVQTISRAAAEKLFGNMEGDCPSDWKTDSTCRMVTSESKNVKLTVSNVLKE
- measurement notes: primary ELISA; signal on apical domain over signal on HSA
readout: Apical domain:HSA (ratio)
# unit: ratio | format: bare number

Value of measured Apical domain:HSA for the entry CD71-binding FN3 domain of SEQ ID NO: 106 (designed binder, Screen 1 hit, tested from colonies in the primary ELISA; not shown: C-terminal poly-histidine tag added to each FN3 domain) MLPAPKNLVVSRVTEDSARLSWTAPDAVFDSFYIAYAEPRPDGEAIGLYVPGSERSYDLTGLKPGTEYSVLIHGVKGGLLSSPLTASFTT : 1890

Reported Apical domain:HSA ( CD71-binding FN3 domain of SEQ ID NO: 109 (designed binder, Screen 1 hit, tested from colonies in the primary ELISA; not shown: C-terminal poly-histidine tag added to each FN3 domain) MLPAPKNLVVSRVTEDSARLSWTAPDAAFDSFFIGYLEPQPPGEAIILHVPGSERSYDLTGLKPGTEYNVTIQGVKGGFPSLPLNANFTT ) = 1030

Recorded values, source patent US20260151494A1.
